- system-name: UniProt:P47901
- Sequence (P47901 whole entry): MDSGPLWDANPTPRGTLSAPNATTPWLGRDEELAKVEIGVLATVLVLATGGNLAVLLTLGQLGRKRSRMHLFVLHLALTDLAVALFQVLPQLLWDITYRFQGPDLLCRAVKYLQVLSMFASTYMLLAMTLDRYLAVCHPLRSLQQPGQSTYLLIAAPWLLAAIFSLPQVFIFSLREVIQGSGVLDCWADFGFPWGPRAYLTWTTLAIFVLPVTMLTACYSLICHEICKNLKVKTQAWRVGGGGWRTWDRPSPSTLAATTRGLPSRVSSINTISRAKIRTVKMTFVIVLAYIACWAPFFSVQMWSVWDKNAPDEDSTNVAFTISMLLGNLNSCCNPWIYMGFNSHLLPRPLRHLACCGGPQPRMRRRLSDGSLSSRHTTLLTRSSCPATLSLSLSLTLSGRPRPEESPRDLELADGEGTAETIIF
- experimental-details: V1b binding assay (3H-AVP displacement, HEK-293 membranes)
- Parameters: expressed in transfected cells; host or cells: HEK-293 (membranes)
- assay-conditions: 1.0 μM compound; read-out: V1b@1.0, % Inh
quantity: inhibition at 1 µM (%)

- molecule: "O=C(NC1c2ccccc2-c2ccccc21)N1CCC(n2c(=O)n(CCCN3CCCCC3)c3ccccc32)CC1"
  system-name: "UniProt:P47901"
  quantity: "inhibition at 1 µM"
  experimental-value: 38
- molecule: "CCC1CCN(CCCn2c(=O)n(C3CCN(C(=S)NC(c4ccccc4)c4ccccc4)CC3)c3ccccc32)C(C)C1 (stereo not shown)"
  system-name: "UniProt:P47901"
  quantity: "inhibition at 1 µM"
  experimental-value: 58
- molecule: "COc1ccccc1NC(=S)N1CCC(n2c(=O)n(CCCN3CCCCC3)c3ccccc32)CC1"
  system-name: "UniProt:P47901"
  quantity: "inhibition at 1 µM"
  experimental-value: 29
- molecule: "CCN(CC)CCn1c(=O)n(C2CCN(C(=S)NC(c3ccccc3)c3ccccc3)CC2)c2ccccc21"
  system-name: "UniProt:P47901"
  quantity: "inhibition at 1 µM"
  experimental-value: 47

(P) O=c1n(CCCCN2CCCC2)c2ccccc2n1C1CCN(C(=S)NC(c2ccccc2)c2ccccc2)CC1
(Q) CC(CN1CCCCC1)Cn1c(=O)n(C2CCN(C(=O)NC(c3ccccc3)c3ccccc3)CC2)c2ccccc21 (stereo not shown)
(R) O=C(Cc1ccc(N2CCCC2)cc1)n1c(=O)n(C2CCN(C(=S)NC(c3ccccc3)c3ccccc3)CC2)c2ccccc21
Please list these in order of increasing inhibition at 1 µM. Thank you! Please express your ranking as an ordered list of the labels.
R, Q, P
